Test system: Aspergillus niger
TEST_DETAILS: Antifungal activity against Aspergillus niger at 200 ug/disk after 48 hrs by disk diffusion method
Assay type: functional
STUDY_CONDITIONS: read-out: IZ
RECORDED_METRIC: zone of inhibition at 200 µg/disc (mm)
# unit: mm | format: bare number

Example entries and their recorded answers appear below.
Cc1ccc(S(=O)(=O)/C=C/S(=O)(=O)CC2=NCCS2)cc1    23
O=S(=O)(CC1=NCCO1)c1c[nH]cc1S(=O)(=O)c1ccc(Cl)cc1    22
O=S(=O)(/C=C/S(=O)(=O)c1ccc(Cl)cc1)CC1=NCCO1    20
O=S(=O)(CC1=NCCS1)c1c[nH]cc1S(=O)(=O)c1ccc(Cl)cc1    38
O=S(=O)(/C=C/S(=O)(=O)c1ccc(Cl)cc1)CC1=NCCS1    29

Entry under test: `O=S(=O)(CC1=NCCS1)c1c[nH]cc1S(=O)(=O)c1ccccc1` . Its zone of inhibition at 200 µg/disc was 33

Entry under test: `Cc1ccc(S(=O)(=O)c2c[nH]cc2S(=O)(=O)CC2=NCCS2)cc1` . Its zone of inhibition at 200 µg/disc was 35

Entry under test: `Cc1ccc(S(=O)(=O)/C=C/S(=O)(=O)CC2=NCCO2)cc1` . Its zone of inhibition at 200 µg/disc was 16

Origin of measurements: ChEMBL document CHEMBL1177891
